test.system: P2X4 (Homo sapiens, UniProt Q99571)
Sequence (Q99571 whole entry): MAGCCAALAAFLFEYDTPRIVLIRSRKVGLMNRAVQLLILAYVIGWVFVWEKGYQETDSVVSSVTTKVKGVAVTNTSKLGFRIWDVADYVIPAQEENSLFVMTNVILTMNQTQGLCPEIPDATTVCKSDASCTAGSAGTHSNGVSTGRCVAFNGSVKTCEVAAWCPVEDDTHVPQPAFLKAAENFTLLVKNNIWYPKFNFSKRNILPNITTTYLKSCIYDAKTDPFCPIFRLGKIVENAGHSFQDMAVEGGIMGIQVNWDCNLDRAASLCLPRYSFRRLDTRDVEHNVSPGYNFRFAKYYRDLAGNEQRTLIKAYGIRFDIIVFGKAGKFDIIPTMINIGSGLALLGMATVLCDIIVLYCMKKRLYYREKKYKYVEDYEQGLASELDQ
assay.comment: Assay B: human P2X4 receptor cell line, mitochondrial photina luminescence (agonist Bz-ATP at EC50)
Assay type: cell-based
Set-up: host or cells: HEK 293 (recombinant, constitutively expressing; with mitochondrial photina in Assay B)
experimental.parameters: HEK human P2X4 cell line, photina luminescence, agonist Bz-ATP at EC50, average
Experimental: The identification of agonists and antagonists of the P2X4 receptor from humans and […] also the quantification of the activity of the compounds of the invention was performed by use of recombinant cell lines. […] The test cell lines constitutively express the mouse or human P2X4 receptors. […] The strength of Fluo8 fluorescence signal or photina luminescence signal corresponds to the level of receptor activation. […] The resulting light signal is measured immediately in the luminometer.
pIC50: −log10 of the molar value.
quantity.kind: pIC50

> print(dat)
                           smiles.structure  quantity.kind  number
1  NS(=O)(=O)c1cc(NC(=O)Cc2ccccc2Br)ccc1Oc1cccc(Cl)c1          pIC50    7.28
2  NS(=O)(=O)c1cc(NC(=O)Cc2c(Cl)ccc(C3CC3)c2Cl)ccc1Oc1cccc(Cl)c1          pIC50    5.89
3  NS(=O)(=O)c1cc(NC(=O)Cc2ccccc2Cl)ccc1Oc1ccc(F)cc1          pIC50    7.37
4  N#Cc1cc(Cl)cc(Oc2ccc(NC(=O)Cc3ccccc3Cl)cc2S(N)(=O)=O)c1          pIC50    5.11
5  Cc1nc(-c2cccc(Oc3ccc(NC(=O)Cc4ccccc4Cl)cc3S(N)(=O)=O)c2)cs1          pIC50    6.83
6  Cc1sc(-c2cccnc2)nc1Oc1ccc(NC(=O)Cc2ccccc2Cl)cc1S(N)(=O)=O          pIC50    6.82

1: NS(=O)(=O)c1cc(NC(=O)Cc2cc(C(F)(F)F)ccc2Cl)ccc1Oc1cccc(Cl)c1
2: NS(=O)(=O)c1cc(NC(=O)Cc2ccccc2)ccc1OC1CCCCC1
3: NS(=O)(=O)c1cc(NC(=O)Cc2c(F)ccc(F)c2Cl)ccc1Oc1cccc(Cl)c1
4: NS(=O)(=O)c1cc(NC(=O)Cc2ccccc2SC(F)(F)F)ccc1Oc1cccc(Cl)c1
Please put the entries in order of rising pIC50. Put the labels in the requested order and list them out.
2, 1, 4, 3
(2: 5.71, 1: 6.08, 4: 6.35, 3: 6.98)

A: NS(=O)(=O)c1cc(NC(=O)Cc2ccc(C(F)(F)F)cc2)ccc1Oc1ccc(Cl)cc1
B: NS(=O)(=O)c1cc(NC(=O)Cc2ccc(C(F)(F)F)cc2)ccc1Oc1ccccc1Cl
Thinking about recorded pIC50 values, which is higher, A or B ? State the label of the item chosen.
A
